Numbers sourced from paper PMC6152727.

molecular target: yeast α-glucosidase; assay: α-Glucosidase activity assay (pNPG substrate); conditions: mean ± SEM of triplicate experiments; final concentration 20 to 300 μM
Please respond with reported IC50 for every item in the list.
Quick note: give the figure in µM, leave out the unit.

IN: Find the measured IC50: item COc1ccc(-c2oc3c(CC=C(C)C)c(O[C@@H]4O[C@H](CO)[C@@H](O)[C@H](O)[C@H]4O)cc(O)c3c(=O)c2O[C@@H]2O[C@@H](C)[C@H](O)[C@@H](O)[C@H]2O[C@@H]2OC[C@@H](O)[C@H](O)[C@H]2O)cc1 [Epimedin B, epimedin B] , target or system yeast α-glucosidase.
OUT: 452

IN: Try this compound too: COc1ccc(-c2oc3c(CC=C(C)C)c(O[C@@H]4O[C@H](CO)[C@@H](O)[C@H](O)[C@H]4O)cc(O)c3c(=O)c2O[C@@H]2O[C@@H](C)[C@H](O)[C@@H](O)[C@H]2O[C@@H]2O[C@@H](C)[C@H](O)[C@@H](O)[C@H]2O)cc1 [Epimedin C, epimedin C]
OUT: 404

IN: Try this compound too: COc1ccc(-c2oc3c(CC=C(C)C)c(OC4OC(CO)C(O)C(O)C4O)cc(O)c3c(=O)c2OC2OC(C)C(O)C(O)C2OC2OC(CO)C(O)C(O)C2O)cc1 (stereo not shown) [Epimedin A, epimedin A]
OUT: 444

IN: Try this compound too: COc1ccc(-c2oc3c(CC=C(C)C)c(O)cc(O)c3c(=O)c2O)cc1 [Icaritin, icaritin]
OUT: 74.4

----------
Molecular target: human recombinant PTP1B (Homo sapiens)
Sequence (P18031 1-435): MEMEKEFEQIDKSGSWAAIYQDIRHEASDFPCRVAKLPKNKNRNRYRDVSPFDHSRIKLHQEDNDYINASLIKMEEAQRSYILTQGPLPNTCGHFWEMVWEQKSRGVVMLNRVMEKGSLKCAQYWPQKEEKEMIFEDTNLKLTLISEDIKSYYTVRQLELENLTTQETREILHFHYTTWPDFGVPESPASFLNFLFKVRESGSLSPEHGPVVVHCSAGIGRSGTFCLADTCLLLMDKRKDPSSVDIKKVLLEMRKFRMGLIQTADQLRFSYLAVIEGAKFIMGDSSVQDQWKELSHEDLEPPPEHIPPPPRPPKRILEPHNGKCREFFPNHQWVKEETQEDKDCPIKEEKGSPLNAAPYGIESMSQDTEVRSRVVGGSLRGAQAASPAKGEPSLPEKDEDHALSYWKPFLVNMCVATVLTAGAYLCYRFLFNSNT
Assay: PTP1B activity assay (pNPP substrate)
Conditions: mean ± SEM of triplicate experiments
Please respond with reported IC50 for every item in the list.

IN: Find the measured IC50: item COc1ccc(-c2oc3c(CC=C(C)C)c(O[C@@H]4O[C@H](CO)[C@@H](O)[C@H](O)[C@H]4O)cc(O)c3c(=O)c2O[C@@H]2O[C@@H](C)[C@H](O)[C@@H](O)[C@H]2O[C@@H]2OC[C@@H](O)[C@H](O)[C@H]2O)cc1 [Epimedin B, epimedin B] , target or system human recombinant PTP1B (Homo sapiens).
OUT: > 300 µM

IN: Try this compound too: COc1ccc(-c2oc3c(CC=C(C)C)c(O)cc(O)c3c(=O)c2O)cc1 [Icaritin, icaritin]
OUT: 11.6 µM

IN: Try this compound too: COc1ccc(-c2oc3c(CC=C(C)C)c(O[C@@H]4O[C@H](CO)[C@@H](O)[C@H](O)[C@H]4O)cc(O)c3c(=O)c2O[C@@H]2O[C@@H](C)[C@H](O)[C@@H](O)[C@H]2O)cc1 [Icariin, icariin]
OUT: > 300 µM

IN: Try this compound too: COc1ccc(-c2oc3c(CC=C(C)C)c(O[C@@H]4O[C@H](CO)[C@@H](O)[C@H](O)[C@H]4O)cc(O)c3c(=O)c2O[C@@H]2O[C@@H](C)[C@H](O)[C@@H](O)[C@H]2O[C@@H]2O[C@@H](C)[C@H](O)[C@@H](O)[C@H]2O)cc1 [Epimedin C, epimedin C]
OUT: > 300 µM

IN: Try this compound too: COc1ccc(-c2oc3c(CC=C(C)C)c(OC4OC(CO)C(O)C(O)C4O)cc(O)c3c(=O)c2OC2OC(C)C(O)C(O)C2OC2OC(CO)C(O)C(O)C2O)cc1 (centres unmarked) [Epimedin A, epimedin A]
OUT: > 300 µM

----------
target: human recombinant PTP1B (Homo sapiens); assay: Enzyme kinetics analysis of PTP1B (Lineweaver–Burk and Dixon plots); details: determined by the Dixon plot
Assay endpoint: Ki (µM)
Quick note: give the figure in µM, leave out the unit.

IN: What does the data say about its Ki? Entry: COc1ccc(-c2oc3c(CC=C(C)C)c(O)cc(O)c3c(=O)c2O)cc1
OUT: 11.4
